# System: HCT-116 colon
# assay_info: NCI-60 one-dose screen, 48 h
# condition_set: 10 µM
About 83,000 compounds went through this panel and 20% of them were active in at least one assay; those are over-represented in the sample as a whole. The source made the active and inactive calls. How the source made its calls: active means growth percent below 10; inactive means the rest.
In this exercise, the only acceptable responses are true (1) (active), false (0) (inactive)

# count of solved cases: 3
Cc1c(O)cccc1O = false (0)
CCN(CC)CCCC(C)Nc1ccnc(/C=C/c2ccc(Cl)cc2)c1 (stereo unspecified) = true (1)
CC(=O)OCC(=O)[C@@]1(O)CC[C@H]2[C@@H]3CC[C@@H]4C[C@H](O)CC[C@]4(C)[C@H]3C(=O)C[C@@]21C = false (0)

Recorded test outcome, item CCOC(=O)C(C#N)Cc1ccccc1 (stereo unspecified)
false (0)

Short answer needed: outcome of this test for `O=C(O)c1ccccc1NCc1ccco1` ?
false (0)

For `COc1ccc(/C=C/c2cccc[n+]2C)cc1` , what call appears in the results of this test?
false (0)

* * *

I'd be grateful if you could share measured growth for these entries.
# Tested on: HOP-62 NSCLC
# assay_info: NCI-60 one-dose screen, 48 h (100 = growth as untreated, 0 = no growth, -100 = all killed)
# condition_set: 10 µM
This is part of a sample that, as a whole, favours compounds with a hit. Of some 83,000 tested, about 20% had one in any assay.
Give bare numbers, in %.

Example compounds with recorded growth:
O=[N+]([O-])c1ccc(-c2ncc(-c3ccc(Br)cc3)o2)cc1 = 114
O=c1[nH][nH]c(=O)c2cc([N+](=O)[O-])ccc12 = 102
C=C[Si](OC(C)=O)(OC(C)=O)OC(C)=O = 89.5
COc1cc(CCN=Cc2ccccc2O)c([N+](=O)[O-])cc1OC = 91.9
OCCN(CCO)C(=S)S = 108

Please supply growth for each of the following items, keeping them in order.
1. NCCCN
2. COC(=O)/C=C1\Sc2cc(F)ccc2NC1=O

[99.4, 96.5]

* * *

For each of the compounds below, state its growth.
# Test system: SW-620 colon
# assay_info: NCI-60 one-dose screen, 48 h (100 = growth as untreated, 0 = no growth, -100 = all killed)
# condition_set: 10 µM
The panel holds about 83,000 compounds, 20% with a hit somewhere; the sample as a whole holds those more often.
One number for each entry, in %.

Previously resolved entries follow.
Cc1ccc(C(=O)c2ccccc2)c(C)c1 = 98.7
COc1ccc(C(=O)C(Br)C(Br)C(=O)O)cc1 (stereo not drawn) = 113
Cc1c(O)cnc2nn(-c3ccccc3)c(=N)n12 = 102
Cc1cc(O)ccc1O = 117
Cc1cc(N)c(S(=O)(=O)O)c(N)c1 = 90.8

For every item in the list below, what is its measured growth?
1. CC(=O)NC(N)=S
2. Oc1ccc(Cc2ccccc2)c2cccnc12

101
31.4

Can you share its growth? I mean this compound: `Nc1ccc(CC(=O)O)c(N)c1`
100

* * *

# Test system: COLO 205 colon
# assay_info: NCI-60 one-dose screen, 48 h
# condition_set: 10 µM
This is part of a sample that, as a whole, favours compounds with a hit. Of some 83,000 tested, about 20% had one in any assay. The source made the active and inactive calls. How the source made its calls: active means growth percent below 10; inactive means the rest.
Can you answer with just one of these options? active, inactive

Worked cases, answers included:
O=C(c1ccc(O)cc1)c1ccc(O)cc1 = inactive
CN(c1ccccc1)c1ncnc2c1ncn2C = inactive

Status in this test for `COc1cc(/C=C/C(=O)c2ccccc2)cc(OC)c1OC` ?
inactive

What classification did `O=[N+]([O-])c1ccc(O)c(S(=O)(=O)O)c1` end up with in this test?
inactive
